Values from the emibetuzumab library of Makowski et al. (2022)

B1: VH:VL chains; a variant is named by its letters at X, in order (parent)
chain 1: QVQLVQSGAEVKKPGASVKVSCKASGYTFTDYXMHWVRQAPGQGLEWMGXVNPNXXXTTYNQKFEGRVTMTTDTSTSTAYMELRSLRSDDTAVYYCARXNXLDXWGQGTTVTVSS
chain 2: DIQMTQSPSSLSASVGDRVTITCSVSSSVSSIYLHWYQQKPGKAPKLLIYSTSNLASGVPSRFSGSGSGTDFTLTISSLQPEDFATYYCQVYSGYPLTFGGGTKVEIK

- Variants of: B1
- procedure-details: yeast display scFab, FACS + sequencing
- run-parameters: with MET
Some of the results follow. No count for the full screen is at hand.
parameter: antigen binding call

changes | measured-result
YRTRGAVD | binds
VRAGDSVA | binds
SAGGGAWV | no binding
YRARGAGV | binds
YKKGGSLD | binds
FEERNSLD | no binding
YKGRDDVA | no binding
VTGGDDGA | no binding
FKARDSGD | no binding
VTGEDAVV | no binding
FKKGSSGV | binds
YRTRSAVY | binds
DATGGDVV | no binding
YRARSAVY | binds
YRERSDVS | no binding
YTGTSDVS | no binding
VTTGGAVD | no binding
AEREADWV | no binding
FAGGGAGS | binds
VTTRADVA | no binding
SAGRGDWD | no binding
YKGRDASD | no binding
VRTEDDVY | no binding
VKGRSDSA | no binding
DATGGFGV | no binding
AKGRADVY | no binding
SRGRGAWD | binds
FRRRGALD | binds
SKGRGAWV | binds
VTEGGDAA | no binding
VEAGDAVA | no binding
DGGTNDVD | no binding
FKRAGSLA | binds
FKGKGFGA | no binding
DAAGASVD | no binding
SRGRGSWD | binds
YRAETDGV | no binding
SRGANAWD | no binding
DKGRSAGD | no binding
FAGGGAGA | no binding
VKRGDDVA | no binding
YGKGGDLA | no binding
YRERGSAA | binds
SKGGSAWD | no binding
YTGRGSLD | binds
FGAAAVGD | no binding
DEGGTDAA | no binding
FRRRGAVD | binds
FRERGAAA | binds
DATGGSGA | no binding
VRAGDAGA | binds
YKGRDALD | binds
FKRRSSGD | binds
VRTRGAVD | binds
FRGKGAVS | binds
FRGKGSLA | binds
FRERNAAA | no binding
VAGTGDWA | no binding
VRAGDDGA | no binding
YRTRGASD | binds
SKAENAWV | no binding
SEARSAVY | no binding
FKGKGSGA | no binding
YRGRSAGA | binds
FGKGGFGY | no binding
FKRRSFGS | no binding
AAEGDAAD | no binding
AKTGNDVA | no binding
YARADDSA | no binding
VKEKGDLA | no binding
SEARNAGD | no binding
VTGTGSLD | no binding
YKGRDAWD | binds
FKGKGVGD | no binding
FAGGGASD | no binding
YRKENYGD | no binding
DKEEDSLA | no binding
VGGTSDWA | no binding
YAGRGDAS | no binding
YTEAADGA | no binding
YKTGGASS | binds
VAGAGDSV | no binding
VGGTSSSS | no binding
VGATSVSF | no binding
YRAGGVGD | binds
FAGRGALD | no binding
AGGRGDVD | no binding
YRARSAWV | binds
VRATGSVY | no binding
YTGRGSGV | binds
VEAGDDGA | no binding
